Values from ChEMBL document CHEMBL1139510

Target: Albumin (Homo sapiens)
Assay: Association rate constant for the interaction between the compound and serum albumin
Format: ADME
Settings: read-out: Kon1
// label = Criterion met if kon is not less than 10000 M⁻¹ s⁻¹, otherwise Criterion not met

Worked examples, 5 molecules total:
>  <MOLECULE>
CC(=O)O[C@@]12CO[C@@H]1C[C@H](O)[C@@]1(C)C(=O)[C@H](O)C3=C(C)[C@@H](OC(=O)[C@H](O)[C@@H](NC(=O)OC(C)(C)C)c4ccccc4)C[C@@](O)([C@@H](OC(=O)c4ccccc4)[C@H]21)C3(C)C.O.O.O [DOCETAXEL]

>  <LABEL VALUE>
Criterion not met

$$$$
>  <MOLECULE>
COC(=O)N[C@H](C(=O)N[C@@H](Cc1ccccc1)[C@@H](O)CN(Cc1ccc(-c2ccccn2)cc1)NC(=O)[C@@H](NC(=O)OC)C(C)(C)C)C(C)(C)C [ATAZANAVIR]

>  <LABEL VALUE>
Criterion not met

$$$$
>  <MOLECULE>
CC(C)CN(C[C@@H](O)[C@H](Cc1ccccc1)NC(=O)O[C@H]1CCOC1)S(=O)(=O)c1ccc(N)cc1

>  <LABEL VALUE>
Criterion met

$$$$
>  <MOLECULE>
CC(=O)O[C@H]1C(=O)[C@@]2(C)C([C@H](OC(=O)c3ccccc3)[C@]3(O)C[C@H](OC(=O)[C@H](O)[C@@H](NC(=O)c4ccccc4)c4ccccc4)C(C)=C1C3(C)C)[C@]1(OC(C)=O)CO[C@@H]1C[C@@H]2OC(=O)CCC(=O)O (stereo partly drawn)

>  <LABEL VALUE>
Criterion not met

$$$$
>  <MOLECULE>
CC(=O)O[C@@]1(C2/C(C)=C(/O)C(=O)C3=C(C)[C@@H](OC(=O)[C@H](O)[C@H](CC(C)C)NC(=O)OC(C)(C)C)C[C@@](O)([C@H]2OC(=O)c2ccccc2)C3(C)C)CO[C@@H]1CCO (stereo partly drawn)

>  <LABEL VALUE>
Criterion not met

$$$$

Task: Given Cc1cccc(C)c1OCC(=O)N[C@@H](Cc1ccccc1)[C@@H](O)C[C@H](Cc1ccccc1)NC(=O)[C@H](C(C)C)N1CCCNC1=O [LOPINAVIR] , state whether its kon is at least 10000 M⁻¹ s⁻¹.
Result: Criterion met

Task: Decide: is the reported value of kon for Cc1c(O)cccc1C(=O)N[C@@H](CSc1ccccc1)[C@H](O)CN1C[C@H]2CCCC[C@H]2C[C@H]1C(=O)NC(C)(C)C equal to or greater than 10000 M⁻¹ s⁻¹?
Result: Criterion not met

Task: Reported kon at or above 10000 M⁻¹ s⁻¹? CC(C)(C)NC(=O)[C@@H]1C[C@@H]2CCCC[C@@H]2CN1C[C@@H](O)[C@H](Cc1ccccc1)NC(=O)[C@H](CC(N)=O)NC(=O)c1ccc2ccccc2n1
Result: Criterion met

* * *

Biological target: Albumin (Homo sapiens, UniProt P02768)
Sequence (P02768 whole entry): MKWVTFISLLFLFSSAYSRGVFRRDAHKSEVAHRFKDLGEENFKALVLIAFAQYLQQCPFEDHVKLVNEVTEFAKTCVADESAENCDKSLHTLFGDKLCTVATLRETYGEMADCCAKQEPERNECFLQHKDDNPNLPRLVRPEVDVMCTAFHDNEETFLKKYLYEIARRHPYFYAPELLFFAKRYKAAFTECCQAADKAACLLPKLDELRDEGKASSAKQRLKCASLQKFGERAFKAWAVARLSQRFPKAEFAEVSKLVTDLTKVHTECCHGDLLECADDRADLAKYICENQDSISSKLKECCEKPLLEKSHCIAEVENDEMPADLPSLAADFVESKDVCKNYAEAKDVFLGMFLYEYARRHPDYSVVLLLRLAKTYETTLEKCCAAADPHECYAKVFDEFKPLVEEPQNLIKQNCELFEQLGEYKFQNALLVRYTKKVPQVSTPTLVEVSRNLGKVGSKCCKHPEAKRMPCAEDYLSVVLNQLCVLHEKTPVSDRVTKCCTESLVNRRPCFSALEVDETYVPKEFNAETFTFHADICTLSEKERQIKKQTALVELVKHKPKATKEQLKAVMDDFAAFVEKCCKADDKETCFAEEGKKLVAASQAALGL
Test: Dissociation rate constant for the interaction between the compound and serum albumin
Format: ADME
PROPERTY MEASURED: Koff1 (s⁻¹)
# output: bare number, implied unit s⁻¹

Task: Reported Koff1, compound CC(=O)O[C@@]1(C2/C(C)=C(/O)C(=O)C3=C(C)[C@@H](OC(=O)[C@H](O)[C@H](CC(C)C)NC(=O)OC(C)(C)C)C[C@@](O)([C@H]2OC(=O)c2ccccc2)C3(C)C)CO[C@@H]1CCO (some centres not stated) : ____
Result: 1.875

Task: Which Koff1 is listed for CC(=O)O[C@@]12CO[C@@H]1C[C@H](O)[C@@]1(C)C(=O)[C@H](O)C3=C(C)[C@@H](OC(=O)[C@H](O)[C@@H](NC(=O)OC(C)(C)C)c4ccccc4)C[C@@](O)([C@@H](OC(=O)c4ccccc4)[C@H]21)C3(C)C.O.O.O ?
Result: 1.505
